- Tested on: RPMI-8226 leukemia
- procedure.details: NCI-60 one-dose screen, 48 h
- assay.conditions: 10 µM unless noted
About 83,000 compounds went through this panel and 20% of them were active in at least one assay; those are over-represented in the sample as a whole. Calls of active or inactive are those of the source. Rule for the calls: active = growth percent below 10; inactive = the rest.
Classes used: yes (1) for active, no (0) for inactive

{"smiles.notation": "C=C(C)[C@@H]1CC[C@]2(C(=O)NNC(=O)c3cccnc3)CC[C@]3(C)[C@H](CC[C@@H]4[C@@]5(C)CCCNC(C)(C)[C@@H]5CC[C@]43C)[C@@H]12", "experimental.target": "RPMI-8226 leukemia", "assigned.category": "no (0)"}
{"smiles.notation": "C=C1C(=O)O[C@H]2[C@H]1CC/C(COC(=O)NCc1cc3ccccc3[nH]1)=C\\CC[C@@]1(C)O[C@@H]21", "experimental.target": "RPMI-8226 leukemia", "assigned.category": "yes (1)"}
{"smiles.notation": "COc1cc2[nH]c(C(=O)c3cc(OC)c(OC)c(OC)c3)c(N)c2cc1C#CCO", "experimental.target": "RPMI-8226 leukemia", "assigned.category": "no (0)"}
{"smiles.notation": "COc1ccc(-c2nc(Nc3ccc(-c4nc5ccccc5[nH]4)cc3)nc(N3CCOCC3)n2)cc1", "experimental.target": "RPMI-8226 leukemia", "assigned.category": "yes (1)"}
{"smiles.notation": "O=C1CNCCN1", "experimental.target": "RPMI-8226 leukemia", "assigned.category": "no (0)"}
